Provide the recorded Kd for the entries that follow.
target: Galectin-7 (Homo sapiens, UniProt P47929)
Sequence (P47929 whole entry): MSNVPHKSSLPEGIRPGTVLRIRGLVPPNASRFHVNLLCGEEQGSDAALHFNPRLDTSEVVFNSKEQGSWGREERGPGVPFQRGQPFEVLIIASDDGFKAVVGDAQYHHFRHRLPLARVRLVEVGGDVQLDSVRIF
Numbers only, in µM.

Sample records with Kd:
>>> value_measured("CCN(CC)C(=S)N[C@H]1[C@@H](O)[C@@H](CO)O[C@@H](O[C@H]2[C@H](O)[C@@H](NC(C)=O)[C@H](OC)O[C@@H]2CO)[C@@H]1O")
180
>>> value_measured("CO[C@@H]1O[C@H](CO)[C@@H](O[C@@H]2O[C@H](CO)[C@H](O)[C@H](NC(=S)NCc3cccnc3)[C@H]2O)[C@H](O)[C@H]1NC(C)=O")
23

Moving on to the next molecule.
Query: Could you share which Kd value was measured for `CO[C@@H]1O[C@H](CO)[C@@H](O[C@@H]2O[C@H](CO)[C@H](O)[C@H](NC(=S)NCCO)[C@H]2O)[C@H](O)[C@H]1NC(C)=O` ?
Result: 130

* * *

molecular target: Galectin-8 (Homo sapiens, UniProt O00214)
Consider the following compounds; for each one, report its Kd.

>>> value_measured("CNC(=S)N[C@H]1[C@@H](O)[C@@H](CO)O[C@@H](O[C@H]2[C@H](O)[C@@H](NC(C)=O)[C@H](OC)O[C@@H]2CO)[C@@H]1O")
"> 3 mM"

Each compound below has a reported value. Please supply its Kd.
1. CO[C@@H]1O[C@H](CO)[C@@H](O[C@@H]2O[C@H](CO)[C@H](O)[C@H](NC(N)=S)[C@H]2O)[C@H](O)[C@H]1NC(C)=O
2. CO[C@@H]1O[C@H](CO)[C@@H](O[C@@H]2O[C@H](CO)[C@H](O)[C@H](NC(=S)N[C@H]3[C@@H](O)[C@@H](CO)O[C@@H](O[C@H]4[C@H](O)[C@@H](NC(C)=O)[C@H](OC)O[C@@H]4CO)[C@@H]3O)[C@H]2O)[C@H](O)[C@H]1NC(C)=O

Result:
> 3 mM
> 3 mM

* * *

Molecular target: Galectin-8 (Homo sapiens, UniProt O00214)
Sequence (O00214 whole entry): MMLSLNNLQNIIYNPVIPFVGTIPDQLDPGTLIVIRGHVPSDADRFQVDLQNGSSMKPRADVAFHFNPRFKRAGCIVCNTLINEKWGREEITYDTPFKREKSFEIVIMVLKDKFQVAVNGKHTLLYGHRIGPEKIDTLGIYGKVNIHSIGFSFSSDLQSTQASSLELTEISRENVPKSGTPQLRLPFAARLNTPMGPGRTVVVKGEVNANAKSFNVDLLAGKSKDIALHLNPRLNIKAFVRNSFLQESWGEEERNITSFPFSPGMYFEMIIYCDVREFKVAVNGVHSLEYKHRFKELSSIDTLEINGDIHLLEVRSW
recorded-endpoint: Kd

>>> value_measured("CCN(CC)C(=S)N[C@H]1[C@@H](O)[C@@H](CO)O[C@@H](O[C@H]2[C@H](O)[C@@H](NC(C)=O)[C@H](OC)O[C@@H]2CO)[C@@H]1O")
"> 3 mM"

Answer for every listed entry: what is its Kd? The entries follow.
1. CCCCNC(=S)N[C@H]1[C@@H](O)[C@@H](CO)O[C@@H](O[C@H]2[C@H](O)[C@@H](NC(C)=O)[C@H](OC)O[C@@H]2CO)[C@@H]1O
2. CO[C@@H]1O[C@H](CO)[C@@H](O[C@@H]2O[C@H](CO)[C@H](O)[C@H](NC(=S)NCCCO)[C@H]2O)[C@H](O)[C@H]1NC(C)=O
3. CO[C@@H]1O[C@H](CO)[C@@H](O[C@@H]2O[C@H](CO)[C@H](O)[C@H](NC(=S)NCCO)[C@H]2O)[C@H](O)[C@H]1NC(C)=O
4. C=CCNC(=S)N[C@H]1[C@@H](O)[C@@H](CO)O[C@@H](O[C@H]2[C@H](O)[C@@H](NC(C)=O)[C@H](OC)O[C@@H]2CO)[C@@H]1O

Result:
["> 3 mM", "> 3 mM", "0.5 mM", "> 3 mM"]

Query: Dear colleague, I am looking for the recorded Kd of the following compound: `CO[C@@H]1O[C@H](CO)[C@@H](O[C@@H]2O[C@H](CO)[C@H](O)[C@H](NC(=S)Nc3ccccc3)[C@H]2O)[C@H](O)[C@H]1NC(C)=O`
Result: > 3 mM
